Please provide measured Bone % dose/g for the entries that follow.
- TEST DETAILS: Biodistribution of 99mTc(N)(X)(DTC)+ heterocomplexes in rats
- Format: in vivo, male Spraque-Dawley rats (SD rats)
One number for each entry, in % dose/g.

Observe how each entry below is paired with its result.
{"COMPOUND": "CCCN1CC[P+](c2ccccc2)(c2ccccc2)[99Tc-2]2(#[N])([NH]N(C)C(SC)=[S+]2)[P+](c2ccccc2)(c2ccccc2)CC1 [^99mTc(N)(PNP1)(DTC)^+]", "ASSAY VALUE": 0.244}
{"COMPOUND": "COCCC[P]1(CCCOC)CCN(CCOC)CC[P](CCCOC)(CCCOC)[99Tc+]12(#[N])[NH]N(C)C(SC)=[S]2 [^99mTc(N)(PNP3)(DTC)^+]", "ASSAY VALUE": 0.198}
{"COMPOUND": "CSC1=[S+][99Tc-2]2(#[N])([NH]N1C)[P+](c1ccccc1)(c1ccccc1)CCOCC[P+]2(c1ccccc1)c1ccccc1 [^99mTc(N)(POP)(DTC)^+]", "ASSAY VALUE": 0.225}

Then this compound:
### Prompt Entry COCCN1CC[P+](c2ccccc2)(c2ccccc2)[99Tc-2]2(#[N])([NH]N(C)C(SC)=[S+]2)[P+](c2ccccc2)(c2ccccc2)CC1 [^99mTc(N)(PNP2)(DTC)^+] : reported Bone % dose/g = ?
### Response 0.209
